assay: Oral bioavailability in Han-Wistar rat at 4 umol/kg; assay type: ADME, organism-based; settings: in vivo
endpoint name: bioavailability (%)
Kindly provide the numeric value in % only, without the unit symbol.

Entry `C[C@@H]1COCCN1c1cc(C2(S(C)(=O)=O)CC2)nc(-c2cccc3[nH]ccc23)n1` has what bioavailability?
62

====

target: Voltage-gated inwardly rectifying potassium channel KCNH2 (Homo sapiens)
Sequence (Q12809 whole entry): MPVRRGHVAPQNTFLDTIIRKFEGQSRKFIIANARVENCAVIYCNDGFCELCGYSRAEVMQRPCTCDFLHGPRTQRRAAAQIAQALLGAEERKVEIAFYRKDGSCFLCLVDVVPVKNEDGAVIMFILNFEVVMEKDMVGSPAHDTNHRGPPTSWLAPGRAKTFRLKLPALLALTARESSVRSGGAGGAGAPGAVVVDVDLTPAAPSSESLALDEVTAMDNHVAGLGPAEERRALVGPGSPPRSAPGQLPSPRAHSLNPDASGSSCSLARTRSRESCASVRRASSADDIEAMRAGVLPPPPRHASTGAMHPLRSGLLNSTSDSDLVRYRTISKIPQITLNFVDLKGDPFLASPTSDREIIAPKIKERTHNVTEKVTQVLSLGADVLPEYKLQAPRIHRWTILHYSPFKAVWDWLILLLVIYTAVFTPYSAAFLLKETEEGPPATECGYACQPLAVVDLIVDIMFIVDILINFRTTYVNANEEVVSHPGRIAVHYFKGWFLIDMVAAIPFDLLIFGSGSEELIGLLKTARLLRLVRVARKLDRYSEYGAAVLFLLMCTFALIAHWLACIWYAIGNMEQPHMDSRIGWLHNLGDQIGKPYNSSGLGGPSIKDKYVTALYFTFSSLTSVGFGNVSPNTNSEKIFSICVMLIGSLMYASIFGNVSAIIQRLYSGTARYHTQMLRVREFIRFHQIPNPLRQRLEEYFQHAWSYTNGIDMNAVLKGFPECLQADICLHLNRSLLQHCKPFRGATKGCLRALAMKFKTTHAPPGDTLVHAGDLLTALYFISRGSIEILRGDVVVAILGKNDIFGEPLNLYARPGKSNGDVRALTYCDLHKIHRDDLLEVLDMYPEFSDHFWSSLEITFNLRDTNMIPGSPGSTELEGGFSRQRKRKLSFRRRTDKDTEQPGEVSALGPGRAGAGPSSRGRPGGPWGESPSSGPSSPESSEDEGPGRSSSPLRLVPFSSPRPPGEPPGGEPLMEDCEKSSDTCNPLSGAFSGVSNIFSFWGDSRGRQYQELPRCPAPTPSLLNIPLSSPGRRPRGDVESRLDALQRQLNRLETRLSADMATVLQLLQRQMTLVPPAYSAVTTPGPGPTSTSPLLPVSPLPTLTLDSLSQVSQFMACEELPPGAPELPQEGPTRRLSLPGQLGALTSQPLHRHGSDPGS
pIC50: −log10 of the molar value.
endpoint name: pIC50

CS(=O)(=O)C1(c2cc(N3CCOCC3)nc(-c3cccc4[nH]ccc34)n2)CCOCC1; < 4.48

# ---- query compound ----
// pIC50 lookup, key: `CS(=O)(=O)C1(c2cc(N3CCOCC3)nc(-c3cccc4[nH]ccc34)n2)CCNCC1`
< 4.48
